Provenance of the data: ChEMBL document CHEMBL1151757

System: Medulla
Assay: Drug uptake in anesthetized cynomolgus monkey brain medulla after 4.5 mins postinjection
Format: ADME, organism-based, Macaca fascicularis
Conditions: in vivo, 0.075 h
Consider the cut-off 2. If the recorded Drug uptake is strictly smaller, the label is met; if not, the label is not met.

Is the reported Drug uptake for O=C(OCC[18F])C1C2CCC(CC1c1cccc(/C=C\Br)c1)N2 (stereo not given) strictly below 2?
not met

Is the reported Drug uptake for O=C(OCCC[18F])C1C2CCC(CC1c1cccc(/C=C\I)c1)N2 (stereo not given) strictly below 2?
not met

Is the reported Drug uptake for O=C(OCC[18F])C1C2CCC(CC1c1ccc(/C=C\I)cc1)N2 (stereo not given) strictly below 2?
met

Is the reported Drug uptake for O=C(OCCC[18F])C1C2CCC(CC1c1cccc(/C=C\Br)c1)N2 (stereo not given) strictly below 2?
not met

Is the reported Drug uptake for O=C(OCC[18F])C1C2CCC(CC1c1cccc(/C=C\I)c1)N2 (stereo not given) strictly below 2?
met

----------
Would you kindly list Drug uptake for each of these compounds?
Assay: Drug uptake in anesthetized cynomolgus monkey brain frontal lobe after 65 mins postinjection
Format: ADME, organism-based, Macaca fascicularis
Details: in vivo
Write no unit; give the number alone.

Query: Drug uptake; subject: O=C(OCCC[18F])C1C2CCC(CC1c1cccc(/C=C\Br)c1)N2 (stereo not given)
3.69

Query: Drug uptake; subject: O=C(OCCC[18F])C1C2CCC(CC1c1cccc(/C=C\I)c1)N2 (stereo not given)
2.77

Query: Drug uptake; subject: O=C(OCC[18F])C1C2CCC(CC1c1ccc(/C=C\I)cc1)N2 (stereo not given)
2.03

Query: Drug uptake; subject: O=C(OCC[18F])C1C2CCC(CC1c1cccc(/C=C\I)c1)N2 (stereo not given)
2.78

Query: Drug uptake; subject: O=C(OCC[18F])C1C2CCC(CC1c1cccc(/C=C\Br)c1)N2 (stereo not given)
2.94

----------
Target: Sodium-dependent noradrenaline transporter (Homo sapiens, UniProt P23975)
Sequence (P23975 whole entry): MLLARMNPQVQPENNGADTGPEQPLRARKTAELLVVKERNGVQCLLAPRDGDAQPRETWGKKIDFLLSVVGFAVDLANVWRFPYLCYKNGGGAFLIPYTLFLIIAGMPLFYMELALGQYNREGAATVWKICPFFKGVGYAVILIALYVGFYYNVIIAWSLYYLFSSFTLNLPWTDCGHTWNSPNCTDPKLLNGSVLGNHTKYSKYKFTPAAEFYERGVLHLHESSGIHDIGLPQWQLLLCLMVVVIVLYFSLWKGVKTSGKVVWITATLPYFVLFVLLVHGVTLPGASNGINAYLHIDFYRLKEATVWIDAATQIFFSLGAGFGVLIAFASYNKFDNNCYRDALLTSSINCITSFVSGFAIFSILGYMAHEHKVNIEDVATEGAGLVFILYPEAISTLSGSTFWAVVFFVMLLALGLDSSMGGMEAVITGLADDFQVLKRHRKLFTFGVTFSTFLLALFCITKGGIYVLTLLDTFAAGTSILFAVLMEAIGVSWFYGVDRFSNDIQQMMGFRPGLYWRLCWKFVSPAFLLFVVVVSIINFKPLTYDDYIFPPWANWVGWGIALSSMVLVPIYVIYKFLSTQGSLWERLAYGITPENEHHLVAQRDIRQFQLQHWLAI
Assay: Displacement of [3H]nisoxetine from human NET transfected in human HEK293 cells
Would you kindly list pKi for each of these compounds?
// returns pKi (minus log10 of molar concentration), number only

Query: pKi; subject: O=C(OCCCF)C1C2CCC(CC1c1cccc(/C=C\Br)c1)N2 (stereo unspecified)
7.52

Query: pKi; subject: O=C(OCCCF)C1C2CCC(CC1c1cccc(/C=C\I)c1)N2 (stereo unspecified)
7.17

Query: pKi; subject: O=C(OCCF)C1C2CCC(CC1c1cccc(/C=C\Br)c1)N2 (stereo unspecified)
6.99

Query: pKi; subject: O=C(OCC[18F])C1C2CCC(CC1c1ccc(/C=C\I)cc1)N2 (stereo unspecified)
7.55

Query: pKi; subject: O=C(OCCF)C1C2CCC(CC1c1cccc(/C=C\I)c1)N2 (stereo unspecified)
6.96

Query: pKi; subject: O=C(OCCF)C1C2CCC(CC1c1cccc(/C=C/I)c1)N2 (trans isomer)
5.93

----------
Assay: Ratio of drug uptake in medulla to cerebellum in anesthetized cynomolgus monkey after 95 mins postinjection
Assay type: ADME, organism-based, Macaca fascicularis
Conditions: in vivo
Would you kindly list Ratio for each of these compounds?

Query: Ratio; subject: O=C(OCCC[18F])C1C2CCC(CC1c1cccc(/C=C\I)c1)N2 (centres undefined)
1.4

Query: Ratio; subject: O=C(OCC[18F])C1C2CCC(CC1c1ccc(/C=C\I)cc1)N2 (centres undefined)
1.8

Query: Ratio; subject: O=C(OCC[18F])C1C2CCC(CC1c1cccc(/C=C\Br)c1)N2 (centres undefined)
1.5

Query: Ratio; subject: O=C(OCCC[18F])C1C2CCC(CC1c1cccc(/C=C\Br)c1)N2 (centres undefined)
1.5

----------
System: Medulla
Test: Drug uptake in anesthetized cynomolgus monkey brain medulla after 12.5 mins postinjection
Format: ADME, organism-based, Macaca fascicularis
Details: in vivo
measured property: Drug uptake
Write no unit; give the number alone.

// fetch Medulla Drug uptake for O=C(OCC[18F])C1C2CCC(CC1c1ccc(/C=C\I)cc1)N2 (stereo not given)
2.59

// fetch Medulla Drug uptake for O=C(OCCC[18F])C1C2CCC(CC1c1cccc(/C=C\I)c1)N2 (stereo not given)
4.73

// fetch Medulla Drug uptake for O=C(OCC[18F])C1C2CCC(CC1c1cccc(/C=C\Br)c1)N2 (stereo not given)
4.2

// fetch Medulla Drug uptake for O=C(OCC[18F])C1C2CCC(CC1c1cccc(/C=C\I)c1)N2 (stereo not given)
3.37

// fetch Medulla Drug uptake for O=C(OCCC[18F])C1C2CCC(CC1c1cccc(/C=C\Br)c1)N2 (stereo not given)
5.82

----------
Test: Drug uptake in anesthetized cynomolgus monkey brain occipital lobe after 35 mins postinjection
Assay type: ADME, organism-based, Macaca fascicularis
Conditions: in vivo
measured property: Drug uptake
Write no unit; give the number alone.

Query: Drug uptake; subject: O=C(OCC[18F])C1C2CCC(CC1c1cccc(/C=C\I)c1)N2 (stereo not given)
3.15

Query: Drug uptake; subject: O=C(OCCC[18F])C1C2CCC(CC1c1cccc(/C=C\I)c1)N2 (stereo not given)
4.01

Query: Drug uptake; subject: O=C(OCC[18F])C1C2CCC(CC1c1ccc(/C=C\I)cc1)N2 (stereo not given)
2.13

Query: Drug uptake; subject: O=C(OCCC[18F])C1C2CCC(CC1c1cccc(/C=C\Br)c1)N2 (stereo not given)
4.66

Query: Drug uptake; subject: O=C(OCC[18F])C1C2CCC(CC1c1cccc(/C=C\Br)c1)N2 (stereo not given)
3.43

----------
Assay: Ratio of drug uptake in occipital lobe to cerebellum in anesthetized cynomolgus monkey after 4.5 mins postinjection
Format: ADME, organism-based, Macaca fascicularis
Settings: in vivo, 0.075 h
Would you kindly list Ratio for each of these molecules?

Query: Ratio; subject: O=C(OCC[18F])C1C2CCC(CC1c1cccc(/C=C\I)c1)N2 (stereo not given)
0.6

Query: Ratio; subject: O=C(OCCC[18F])C1C2CCC(CC1c1cccc(/C=C\I)c1)N2 (stereo not given)
0.8

Query: Ratio; subject: O=C(OCCC[18F])C1C2CCC(CC1c1cccc(/C=C\Br)c1)N2 (stereo not given)
0.7

Query: Ratio; subject: O=C(OCC[18F])C1C2CCC(CC1c1cccc(/C=C\Br)c1)N2 (stereo not given)
0.7

Query: Ratio; subject: O=C(OCC[18F])C1C2CCC(CC1c1ccc(/C=C\I)cc1)N2 (stereo not given)
0.8

----------
Test system: Putamen
Test: Drug uptake in anesthetized cynomolgus monkey brain putamen after 1.5 mins postinjection
Type: ADME, organism-based, Macaca fascicularis
Conditions: in vivo, 0.025 h
Would you kindly list Drug uptake for each of these compounds?
Write no unit; give the number alone.

Query: Drug uptake; subject: O=C(OCC[18F])C1C2CCC(CC1c1ccc(/C=C\I)cc1)N2 (stereo not given)
0.11

Query: Drug uptake; subject: O=C(OCC[18F])C1C2CCC(CC1c1cccc(/C=C\I)c1)N2 (stereo not given)
0.1

Query: Drug uptake; subject: O=C(OCCC[18F])C1C2CCC(CC1c1cccc(/C=C\I)c1)N2 (stereo not given)
0.27

Query: Drug uptake; subject: O=C(OCCC[18F])C1C2CCC(CC1c1cccc(/C=C\Br)c1)N2 (stereo not given)
0.3

Query: Drug uptake; subject: O=C(OCC[18F])C1C2CCC(CC1c1cccc(/C=C\Br)c1)N2 (stereo not given)
0.06

----------
Would you kindly list Drug uptake for each of these compounds?
System: Pons
Assay: Drug uptake in anesthetized cynomolgus monkey brain pons after 95 mins postinjection
Type: ADME, organism-based, Macaca fascicularis
Details: in vivo
Write no unit; give the number alone.

Query: Drug uptake; subject: O=C(OCCC[18F])C1C2CCC(CC1c1cccc(/C=C\I)c1)N2 (stereo not given)
4.41

Query: Drug uptake; subject: O=C(OCCC[18F])C1C2CCC(CC1c1cccc(/C=C\Br)c1)N2 (stereo not given)
4.68

Query: Drug uptake; subject: O=C(OCC[18F])C1C2CCC(CC1c1ccc(/C=C\I)cc1)N2 (stereo not given)
3.5

Query: Drug uptake; subject: O=C(OCC[18F])C1C2CCC(CC1c1cccc(/C=C\I)c1)N2 (stereo not given)
3.05

Query: Drug uptake; subject: O=C(OCC[18F])C1C2CCC(CC1c1cccc(/C=C\Br)c1)N2 (stereo not given)
4.36

----------
Experiment: Octanol-water partition coefficient, log P at pH 7.4 by shake-flask method
Format: physicochemical
measured property: logD
Write no unit; give the number alone.

Query: logD; subject: O=C(OCC[18F])C1C2CCC(CC1c1cccc(/C=C\Br)c1)N2 (centres undefined)
1.4

Query: logD; subject: O=C(OCCC[18F])C1C2CCC(CC1c1cccc(/C=C\Br)c1)N2 (centres undefined)
1.87

Query: logD; subject: O=C(OCCC[18F])C1C2CCC(CC1c1cccc(/C=C\I)c1)N2 (centres undefined)
1.64

Query: logD; subject: O=C(OCC[18F])C1C2CCC(CC1c1cccc(/C=C\I)c1)N2 (centres undefined)
1.69
